The measured values listed here are drawn from paper PMC8483441.

- PROTOCOL_DETAILS: Cytotoxicity in mammalian cells (MTT assay)
- Assay type: cell-based
- CONDITIONS_USED: MRC-5 cytotoxicity (IC50)
Ends that are not written are not given here.
MEASURED_PARAMETER: IC50 (µM)
# output: bare number, implied unit µM

Specify IC50 for RPFTRAQWFAIQHISPRTIAMRAINNYRWR-NH2 [peptide 1, hECP30] and stop.
23
